Target Desc: CDK4/cyclin D3 (Homo sapiens)
Sequence (P11802 whole entry): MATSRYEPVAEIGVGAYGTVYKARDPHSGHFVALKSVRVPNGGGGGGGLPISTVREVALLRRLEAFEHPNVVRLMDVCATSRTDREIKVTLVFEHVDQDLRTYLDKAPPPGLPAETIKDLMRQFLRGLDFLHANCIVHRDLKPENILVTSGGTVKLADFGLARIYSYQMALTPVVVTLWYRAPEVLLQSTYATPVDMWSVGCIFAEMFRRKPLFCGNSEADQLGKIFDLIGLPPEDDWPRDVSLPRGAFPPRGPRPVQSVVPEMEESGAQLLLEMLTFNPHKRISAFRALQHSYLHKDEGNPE
Sequence (P30281 whole entry partner): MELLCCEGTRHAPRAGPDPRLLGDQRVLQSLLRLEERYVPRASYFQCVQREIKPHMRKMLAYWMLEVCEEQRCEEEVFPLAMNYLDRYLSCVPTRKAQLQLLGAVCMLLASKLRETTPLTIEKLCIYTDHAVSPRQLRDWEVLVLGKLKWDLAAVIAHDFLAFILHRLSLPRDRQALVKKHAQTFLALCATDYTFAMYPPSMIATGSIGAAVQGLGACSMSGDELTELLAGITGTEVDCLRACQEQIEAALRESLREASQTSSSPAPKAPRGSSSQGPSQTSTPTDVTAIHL
Method: Human CDK4/cyclin D3 inhibitory activity (QS S Assist CDK4/Cyclin D3_FP Kit, IMAP fluorescent polarization)
Particulars: read-out: CDK4 Activity symbol
Measurement Kind: IC50

Example compounds with recorded IC50:
{"Line Notation": "C[C@@H](O)c1cc2cnc(Nc3ccc(CN4CCC5(CC4)COC5)cn3)nc2c(N2CCCCC2)n1", "Measured": "< 10 nM"}
{"Line Notation": "OCCN1CCN(Cc2ccc(Nc3ncc4cc(C5COC5)nc(N5CCCCC5)c4n3)nc2)CC1", "Measured": "< 10 nM"}
{"Line Notation": "C[C@@H](O)c1cc2cnc(Nc3ccc4c(n3)CCN(C(=O)CN3CC5(CC(O)C5)C3)C4)nc2c(N2CCCCC2)n1", "Measured": "< 10 nM"}

Sure, the documented IC50 for "OCCc1cc2cnc(Nc3ccc(N4CCNCC4)cn3)nc2c(N2CCOCC2)n1" is ≥ 100 nM

Quick note, IC50 for "C[C@@H](O)c1cc2cnc(Nc3ccc(N4CCNCC4=O)cn3)nc2c(N2CCCCC2)n1" landed at < 10 nM

Measured IC50 of "C[C@@H](O)c1cc2cnc(Nc3ccc(CN4CCC(O)CC4)cn3)nc2c(N2CCCC2)n1" : 10 to 100 nM

Measured IC50 of "OCc1cc2cnc(Nc3ccc(CN4CCNCC4)cn3)nc2c(N2CCCCC2)n1" : < 10 nM

IC50 in this record for "CC(F)(F)c1cc2cnc(Nc3ccc(N4CCNCC4)cn3)nc2c(N2CCOCC2)n1" : ≥ 100 nM

IC50 reading for "C[C@@H](O)c1cc2cnc(Nc3ccc4c(n3)CCN(C(=O)[C@H]3C[C@@H](O)CN3)C4)nc2c(N2CCCCC2)n1" : < 10 nM
